Test: Pharmacokinetic evaluation in mice
Assay type: in vivo
Conditions: plasma; mouse IV 1 mg/kg
Observation Type: C0 (ng/mL)
Just the number please, in ng/mL, no unit attached.

Quick check: C0 of O=C(COc1ccc(Cl)c(F)c1)NC1CC2(C1)CC(c1nnc(N3CC(OC(F)(F)F)C3)o1)C2 (stereo not shown) ?
1340

====

Assay: Pharmacokinetic evaluation in mice
Type: in vivo
Conditions: plasma; mouse PO 30 mg/kg
Observation Type: Cmax (ng/mL)
Just the number please, in ng/mL, no unit attached.

Quick check: Cmax of O=C(COc1ccc(Cl)c(F)c1)NC1CC2(C1)CC(c1nnc(N3CC(OC(F)(F)F)C3)o1)C2 (stereo not shown) ?
21500
